All values here come from ChEMBL document CHEMBL4152312.

molecular target: Serine/threonine-protein kinase PAK 2 (Homo sapiens) (UniProt Q13177); assay: Inhibition of recombinant human full length GST-tagged PAK2 expressed in baculovirus expression system at 500 nM by Z-LYTE assay relative to control
Sequence (Q13177 whole entry): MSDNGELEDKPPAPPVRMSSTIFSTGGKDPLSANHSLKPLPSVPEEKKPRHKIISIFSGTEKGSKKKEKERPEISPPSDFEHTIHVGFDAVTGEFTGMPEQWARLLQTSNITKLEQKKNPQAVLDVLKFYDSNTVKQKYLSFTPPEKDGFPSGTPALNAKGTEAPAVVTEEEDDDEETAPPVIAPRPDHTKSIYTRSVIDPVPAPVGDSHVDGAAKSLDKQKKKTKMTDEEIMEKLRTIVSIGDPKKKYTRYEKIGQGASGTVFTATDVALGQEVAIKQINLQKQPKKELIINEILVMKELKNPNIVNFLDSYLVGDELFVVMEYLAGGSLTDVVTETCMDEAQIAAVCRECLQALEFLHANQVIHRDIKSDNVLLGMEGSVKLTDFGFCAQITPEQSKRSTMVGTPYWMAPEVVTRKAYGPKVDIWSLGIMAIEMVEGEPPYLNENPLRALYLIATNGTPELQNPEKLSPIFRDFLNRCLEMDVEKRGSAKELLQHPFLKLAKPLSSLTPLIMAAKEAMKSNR
measurement-type: inhibition (%)

Recall the reported inhibition of OC[C@@H](Nc1ncnc2sc(-c3ccc(O)cc3)cc12)c1ccccc1 on Serine/threonine-protein kinase PAK 2 (Homo sapiens) (UniProt Q13177) and write it down.
5

Quote Serine/threonine-protein kinase PAK 2 (Homo sapiens) (UniProt Q13177) inhibition for entry CN(C)CCn1cc(-c2cccc(O)c2)c2c(N)ncnc21 .
6

Report inhibition on Serine/threonine-protein kinase PAK 2 (Homo sapiens) (UniProt Q13177) for this entry: OCc1ccc(-c2cc3c(N[C@H](CO)c4ccccc4)ncnc3[nH]2)cc1
5

Answer briefly: inhibition recorded on Serine/threonine-protein kinase PAK 2 (Homo sapiens) (UniProt Q13177) for CCC(=O)Nc1ccc(-c2c[nH]c3ncnc(N[C@H](C)c4ccccc4)c23)cc1
5
